FYI, the data here is from patent US20230391760A1.

- system_name: GLP-1 Receptor (Homo sapiens, UniProt P43220)
- Sequence (P43220 24-463, species assumed): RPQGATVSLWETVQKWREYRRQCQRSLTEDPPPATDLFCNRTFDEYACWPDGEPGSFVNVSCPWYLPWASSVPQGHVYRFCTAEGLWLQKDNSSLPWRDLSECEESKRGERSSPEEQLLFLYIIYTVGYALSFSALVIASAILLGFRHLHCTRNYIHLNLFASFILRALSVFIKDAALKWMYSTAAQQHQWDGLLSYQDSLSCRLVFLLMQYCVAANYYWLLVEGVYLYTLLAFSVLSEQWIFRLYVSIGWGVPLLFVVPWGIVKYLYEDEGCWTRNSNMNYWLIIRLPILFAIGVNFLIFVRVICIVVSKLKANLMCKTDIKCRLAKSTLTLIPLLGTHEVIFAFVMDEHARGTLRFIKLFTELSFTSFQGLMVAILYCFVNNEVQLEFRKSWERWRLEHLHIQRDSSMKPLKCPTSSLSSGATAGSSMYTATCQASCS
- protocol_details: GLP-1R agonist cAMP stimulation assay (HEK293/GLP1R/CRE-LUC cells, cAMP dynamic 2 Kit)
- measurement_setup: HEK293/CRE-Luc cell line stably expressing the GLP-1 Receptor, 30 min at 37° C.
Friendly reminder: EC50 below 600 pM is 1, at or above is 0.

# compound, class_assignment
measured = [
    ("O=C(Nc1ccc2c(c1)nc(CN1CCC(c3cccc(OCc4ccc(Cl)cc4F)n3)CC1)n2C[C@@H]1CCO1)C1CCCC1 [Compound 151a]", 0),
    ("CO[C@H](C)Cn1c(CN2CCC(c3cccc4c3OC(C)(c3ccc(Cl)cn3)O4)CC2)nc2cc(-c3noc(=O)[nH]3)ncc21 (some centres unmarked) [Compound 427a]", 0),
    ("N#Cc1ccc(COc2cc(C3=CCN(Cc4nc5cc(-c6noc(=O)[nH]6)cnc5n4C[C@@H]4CCO4)CC3)ccc2F)c(F)c1 [Compound 295a]", 0),
    ("COCCC(=O)Nc1ccc2c(c1)nc(CN1CCC(c3cccc(OCc4ccc(Cl)cc4F)n3)CC1)n2C[C@@H]1CCO1 [Compound 107a]", 1),
    ("O=C(O)CCc1ccc2c(c1)nc(CN1CC=C(c3cccc(OCc4ccc(Cl)cc4F)n3)CC1)n2C[C@@H]1CCO1 [Compound 113a]", 0),
]

Lab note: EC50 threshold 600 pM. Does this compound come in strictly under it? O=C(Nc1ccc2c(c1)nc(CN1CCC(c3cccc(OCc4ccc(Cl)cc4F)n3)CC1)n2C[C@@H]1CCO1)c1cccnc1 [Compound 168a]
1

Quick check: does Fc1cc(Cl)ccc1COc1cccc(C2CCN(Cc3nc4cc(-c5nnn[nH]5)ccc4n3C[C@@H]3CCO3)CC2)n1 [Compound 125a] have EC50 under 600 pM?
1

Please let me know if CO[C@H](C)Cn1c(CN2CCC(c3cccc4c3OC(C)(c3ccc(Cl)cn3)O4)CC2)nc2cc(-c3nnc(C(F)(F)F)[nH]3)ncc21 (some centres unmarked) [Compound 428a] shows EC50 below 600 pM.
1

* * *

- system_name: GLP-1 Receptor (Homo sapiens)
- protocol_details: GLP-1R agonist cAMP stimulation assay (HEK293/GLP1R/CRE-LUC cells, cAMP dynamic 2 Kit)
- measurement_setup: HEK293/CRE-Luc cell line stably expressing the GLP-1 Receptor, 30 min at 37° C.
Measured EC50 of individual entries
Response body: numeric value in nM, unit text excluded.

Study these solved cases before continuing.
# compound, reading_unit, EC50
measured = [
    ("CC(C(=O)Nc1ccc2c(c1)nc(CN1CCC(c3cccc(OCc4ccc(Cl)cc4F)n3)CC1)n2C[C@@H]1CCO1)c1cnn(C)c1 (stereo partly shown) [Compound 182a]", "nM", 2.5),
    ("O=C(NC1CC1)c1ccc2c(c1)nc(CN1CCC(c3cccc(OCc4ccc(Cl)cc4F)n3)CC1)n2C[C@@H]1CCO1 [Compound 396a]", "nM", 3.2),
    ("C[C@]1(c2ccc(Cl)cc2F)Oc2cccc(C3CCN(Cc4nc5cc(-c6nnc(C#N)[nH]6)nnc5n4C[C@@H]4CCO4)CC3)c2O1 [Compound 448a]", "nM", 0.011),
    ("CC1(c2ccc(Cl)cc2F)Oc2cccc(C3CCN(Cc4nc5cc(-c6nnc(C(F)(F)F)[nH]6)cnc5n4C[C@H]4CCCO4)CC3)c2O1 (stereo partly shown) [Compound 245a]", "nM", 2.6),
]

Short answer for Fc1cc(Cl)ccc1COc1cc(C2CCN(Cc3nc4cc(-c5nnc(C(F)(F)F)[nH]5)ncc4n3C[C@@H]3CCO3)CC2F)ccc1F (stereo partly shown) [Compound 478a] : EC50 was 0.1

For C[C@]1(c2ccc(Cl)cc2F)Oc2cccc(C3CCN(Cc4nc5cc(-c6noc(=O)[nH]6)cnc5n4C[C@@H]4CCO4)CC3)c2O1 [Compound 262] the compound record lists EC50 as 0.071

Lookup result for CC1(c2ccc(C#N)cc2F)Oc2cccc(C3CCN(Cc4nc5cc(-c6nnc(C7CC7)[nH]6)ccc5n4C[C@@H]4CCO4)CC3)c2O1 (stereo partly shown) [Compound 277a] ; measured EC50: 0.15
